All figures here come from paper PMC9243336.

biological target: Transthyretin (TTR) V30M (Homo sapiens, UniProt P02766, V50M); experiment: acid-induced (pH […] h) aggregation turbidity; urea denaturation by Trp fluorescence
Would you mind telling me the reported EC50 of each entry?
Your answer should be a plain number; it is taken to be in µM.

[in] Write down the reported EC50 of C=C1[C@@H]2CC[C@@H](C2)[C@@]1(C)CC/C=C(/C)CO , test system: Transthyretin (TTR) V30M (Homo sapiens, UniProt P02766, V50M).
[out] 34.5

[in] Now the same for C/C(=C/CC[C@@]1(C)C2C[C@@H]3[C@H](C2)C31C)CO
[out] 44.3
